- assayedSystem: Retinoic acid receptor RXR-beta (Homo sapiens, UniProt P28702)
- test: Transcriptional activity was evaluated in CV-1 cells transfected with expression vector for Retinoic acid receptor RXR-beta
testReadout: EC50 (µM)
Give bare numbers, in µM.

IN: Query: EC50; subject: CCO/N=C(/c1ccc(C(=O)O)cc1)c1cc2c(cc1C)C(C)(C)CCC2(C)C
OUT: 0.165

----------
- assayedSystem: Retinoic acid receptor RXR-beta (Homo sapiens)
- Sequence (P28702 whole entry): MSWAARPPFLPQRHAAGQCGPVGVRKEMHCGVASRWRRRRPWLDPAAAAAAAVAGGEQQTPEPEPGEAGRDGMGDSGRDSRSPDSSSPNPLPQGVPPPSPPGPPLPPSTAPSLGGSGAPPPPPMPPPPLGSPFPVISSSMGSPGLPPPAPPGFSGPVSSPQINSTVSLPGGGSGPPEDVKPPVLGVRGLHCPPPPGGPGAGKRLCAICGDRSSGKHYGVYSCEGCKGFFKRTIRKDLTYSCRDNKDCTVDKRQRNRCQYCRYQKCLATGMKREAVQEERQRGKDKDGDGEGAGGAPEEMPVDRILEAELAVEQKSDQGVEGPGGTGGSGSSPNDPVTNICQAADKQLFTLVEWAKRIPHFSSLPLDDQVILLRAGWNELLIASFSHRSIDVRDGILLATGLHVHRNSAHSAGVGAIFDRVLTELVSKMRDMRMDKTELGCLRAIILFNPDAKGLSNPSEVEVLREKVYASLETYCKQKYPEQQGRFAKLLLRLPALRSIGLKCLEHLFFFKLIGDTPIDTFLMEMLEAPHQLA
- test: Binding affinity towards recombinantly expressed Retinoic acid receptor RXR-beta in baculoviral system, by using 5 nM [3H]targretin in a competitive binding assay
testReadout: pKi
Give bare numbers, as −log10 of the molar value.

IN: Query: pKi; subject: CCO/N=C(/c1ccc(C(=O)O)cc1)c1cc2c(cc1C)C(C)(C)CCC2(C)C
OUT: 6.92
